The reported measurements were obtained from patent US6989384B2.

Test system: HRV-14
PROCEDURE DETAILS: Antirhinoviral H1-HeLa cell culture assay (cell protection, XTT), HRV-14
Format: cell-based, human rhinovirus
DETAILS: HRV-14, H1-HeLa cells, XTT, two days; read-out: Cell Protection EC50
I'd appreciate it if you could supply EC50 values for the items below.
Numbers only, in nM.

Sample answers from the record:
{"columns": ["COMPOUND", "EC50, nM"],
 "data": [
  ["Cc1cc(CCCCCOc2c(Cl)cc(C3=NCCO3)cc2Cl)on1 [WIN 54954, reference compound]", 2130],
  ["Cc1cc(CCCCCCCOc2ccc(C3=N[C@@H](C)CO3)cc2)on1 [WIN 52084, reference compound]", 70]
]}

Consider now this further compound.
// fetch EC50 given entry Cc1cc(CCCCCCCOc2ccc(C3=NCCO3)cc2)on1 [WIN 51711, reference compound]
780

====

Hi there, I'd appreciate the recorded kinact/KI for every entry that follows.
TARGET UNDER TEST: rhinovirus 3C protease from HRV serotype-14 (Human rhinovirus 14, UniProt P03303)
Construct: Recombinant rhinovirus 3C proteases; made in house
Sequence (P03303 1538-1719): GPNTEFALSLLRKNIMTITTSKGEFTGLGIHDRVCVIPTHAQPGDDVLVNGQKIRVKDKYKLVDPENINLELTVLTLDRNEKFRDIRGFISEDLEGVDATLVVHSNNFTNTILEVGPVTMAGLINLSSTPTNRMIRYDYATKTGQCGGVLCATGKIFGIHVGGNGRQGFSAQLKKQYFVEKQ
PROCEDURE DETAILS: Inhibition of rhinovirus 3C protease activity (FRET assay), HRV-14
Assay type: biochemical
DETAILS: read-out: Protease Inhibition kobs/I
Give bare numbers, in M⁻¹ s⁻¹.

Look up kinact/KI for the entries below, preserving their order.
1. CCOC(=O)/C=C/[C@H](C[C@@H]1CCNC1=O)NC(=O)c1cc2cc(Br)ccc2n1C
2. CCOC(=O)/C=C/[C@H](C[C@@H]1CCNC1=O)NC(=O)N[C@@H](CC(C)C)C(=O)OCC
3. CCOC(=O)/C=C/[C@H](C[C@@H]1CCNC1=O)NC(=O)c1ccc2ccc(Br)cc2c1

1. 1320
2. 1050
3. 31400

====

System: HRV-14
PROCEDURE DETAILS: Antirhinoviral H1-HeLa cell culture assay (cell protection, XTT), HRV-14
Format: cell-based, human rhinovirus
DETAILS: Rhinovirus B, HRV14, 48 h; HRV-14, H1-HeLa cells, XTT, two days; read-out: Cell Protection EC50
Label key: fulfilled means EC50 under 2 µM; not fulfilled means EC50 of 2 µM or more.

{"columns": ["MOLECULE", "CLASS LABEL"],
 "data": [
  ["CCOC(=O)c1ccc(OCCC2CCN(c3ccc(C)nn3)CC2)cc1 [Pirodavir, reference compound]", "fulfilled"],
  ["CCOC(=O)/C=C/[C@H](CCC(N)=O)NC(=O)c1ccccc1 [Compound 34]", "not fulfilled"],
  ["CCOC(=O)/C=C/[C@H](CCC(N)=O)NC(=O)c1cc2ccccc2s1 [Compound 26]", "fulfilled"]
]}

Lab note: EC50 threshold 2 µM. Does this molecule come in strictly under it? CCOC(=O)/C=C/[C@H](CCC(N)=O)NC(=O)c1cc2ccccc2[nH]1 [Compound 38]
fulfilled

Given CCOC(=O)/C=C/[C@H](CCC(N)=O)NC(=O)c1ccc2ccccc2n1 [Compound 31] , is recorded EC50 strictly lower than 2 µM?
not fulfilled

Below 2 µM on EC50? Entry CCOC(=O)/C=C/[C@H](CCC(N)=O)NC(=O)c1ccc(Cl)c(Cl)c1 [Compound 35]
not fulfilled

Consider CCOC(=O)/C=C/[C@H](CCC(N)=O)NC(=O)c1nn(-c2ccccc2)nc1C [Compound 32] . Does its EC50 lie strictly below 2 µM?
fulfilled

Lab note: EC50 threshold 2 µM. Does this molecule come in strictly under it? CCOC(=O)/C=C/[C@H](CCC(N)=O)NC(=O)c1cnc2ccccc2n1 [Compound 28]
not fulfilled

Is the reported EC50 for CCOC(=O)/C=C/[C@H](CCC(N)=O)NC(=O)c1ccc2ccccc2c1 [Compound 25] strictly below 2 µM?
fulfilled

Input CCOC(=O)/C=C/[C@H](CCC(N)=O)NC(=O)c1ccccc1CCc1ccccc1 [Compound 37] ; condition: EC50 strictly below 2 µM. Does it hold?
not fulfilled

Bench note: check whether CCOC(=O)/C=C/[C@H](CCC(N)=O)NC(=O)c1ccccc1COC(=O)c1ccccc1 [Compound 36] shows EC50 below 2 µM
not fulfilled

====

TARGET UNDER TEST: rhinovirus 3C protease from HRV serotype-14 (Human rhinovirus 14)
Construct: Recombinant rhinovirus 3C proteases; made in house
PROCEDURE DETAILS: Inhibition of rhinovirus 3C protease activity (FRET assay), HRV-14
Assay type: biochemical
DETAILS: HRV-14 3C protease; progress curves, enzyme start; read-out: Protease Inhibition kobs/I
QUANTITY NAME: kinact/KI (M⁻¹ s⁻¹)
Give bare numbers, in M⁻¹ s⁻¹.

Observe how each entry below is paired with its result.
{"columns": ["COMPOUND", "kinact/KI (M⁻¹ s⁻¹)"],
 "data": [
  ["CCOC(=O)/C=C/[C@H](C[C@H]1CCNC1=O)NC(=O)c1ccc2ccccc2c1 [Compound 2]", 400],
  ["CCOC(=O)/C=C/[C@H](C[C@@H]1CCNC1=O)NC(=O)/C=C/c1cccc(O)c1 [Compound 17]", 315],
  ["CCOC(=O)/C=C/[C@H](C[C@@H]1CCNC1=O)NC(=O)c1cc2ccccc2cc1N [Compound 69]", 142],
  ["CCOC(=O)/C=C/[C@H](C[C@@H]1CCNC1=O)NC(=O)c1nc2ccccc2nc1O [Compound 7]", 36]
]}

List reported kinact/KI for each of these compounds:
1. CCOC(=O)/C=C/[C@H](C[C@@H]1CCNC1=O)NC(=O)/C=C/c1ccc(Cl)cc1 [Compound 11]
2. CCOC(=O)/C=C/[C@H](C[C@@H]1CCNC1=O)NC(=O)Nc1cc(C)cc(C)c1 [Compound 58]
3. CCOC(=O)/C=C/[C@H](C[C@@H]1CCNC1=O)NC(=O)c1cc2cc(Cl)ccc2[nH]1 [Compound 40]
4. CCOC(=O)/C=C/[C@H](CCC(N)=O)NC(=O)c1ccc2ccccc2n1 [Compound 31]

750
185
1270
110

====

Please respond with reported CC50 at 2 days for every item in the list.
PROCEDURE DETAILS: Cytotoxicity in mock-infected H1-HeLa cells (XTT)
Assay type: cell-based
DETAILS: human, two days, read-out: Toxicity CC50

Examples with answers:
{"columns": ["COMPOUND", "CC50 at 2 days"],
 "data": [
  ["CCOC(=O)/C=C/[C@H](C[C@@H]1CCNC1=O)NC(=O)c1ccc2ccccc2c1", "> 100 µM"],
  ["CCOC(=O)/C=C/[C@H](C[C@@H]1CCNC1=O)NC(=O)/C=C/c1ccc(F)c(Br)c1", "> 100 µM"],
  ["CCOC(=O)/C=C/[C@H](C[C@@H]1CCNC1=O)NC(=O)/C=C/c1cc2c(cc1Br)OCO2", "> 100 µM"],
  ["CCOC(=O)/C=C/[C@H](C[C@@H]1CCNC1=O)NC(=O)c1cc2cc(Br)ccc2[nH]1", "> 10 µM"],
  ["CCOC(=O)/C=C/[C@H](C[C@@H]1CCNC1=O)NC(=O)/C=C/c1ccc2c(c1)OCO2", "> 10 µM"]
]}

Report CC50 at 2 days for every entry below.
1. CCOC(=O)/C=C/[C@H](CCC(N)=O)NC(=O)c1nn(-c2ccccc2)nc1C
2. CCOC(=O)/C=C/[C@H](CCC(N)=O)NC(=O)c1ccc2ccccc2c1
3. CCOC(=O)/C=C/[C@H](C[C@@H]1CCNC1=O)NC(=O)/C=C/c1ccc(C)cc1
4. CCOC(=O)/C=C/[C@H](C[C@@H]1CCNC1=O)NC(=O)Nc1cccc2ccccc12
5. CCOC(=O)/C=C/[C@H](CCC(N)=O)NC(=O)c1ccc(Cl)c(Cl)c1
6. Cc1cc(CCCOc2c(C)cc(-c3noc(C(F)(F)F)n3)cc2C)on1 [Pleconaril, reference compound]
7. CCOC(=O)/C=C/[C@H](CCC(N)=O)NC(=O)c1ccccc1

> 100 µM
> 100 µM
> 10 µM
> 10 µM
100 µM
> 10 µM
> 100 µM

Consider the following items and state reported CC50 at 2 days for each.
1. CCOC(=O)/C=C/[C@H](C[C@@H]1CCNC1=O)NC(=O)c1cc2cc(CC)ccc2[nH]1
2. CCOC(=O)c1ccc(OCCC2CCN(c3ccc(C)nn3)CC2)cc1 [Pirodavir, reference compound]
3. CCOC(=O)/C=C/[C@H](CCC(N)=O)NC(=O)c1cc2ccccc2s1
4. CCOC(=O)/C=C/[C@H](C[C@@H]1CCNC1=O)NC(=O)/C=C/c1ccc(C)c(Br)c1
5. CCOC(=O)/C=C/[C@H](CCC(N)=O)NC(=O)/C=C/c1ccccc1

1: > 10 µM; 2: > 10 µM; 3: > 100 µM; 4: > 10 µM; 5: > 100 µM

Your task in this section: give CC50 at 2 days for each listed record.
1. CCOC(=O)/C=C/[C@H](C[C@@H]1CCNC1=O)NC(=O)c1ccc2ccc(Br)cc2c1
2. CCOC(=O)/C=C/[C@H](CCC(N)=O)NC(=O)c1ccccc1CCc1ccccc1
3. CCOC(=O)/C=C/[C@H](CCC(N)=O)NC(=O)c1ccc(N(C)C)cc1
4. CCOC(=O)/C=C/[C@H](C[C@@H]1CCNC1=O)NC(=O)c1cc(-c2ccccc2)oc1C
5. CCOC(=O)/C=C/[C@H](C[C@@H]1CCNC1=O)NC(=O)C1=Cc2cc(Cl)ccc2OC1
6. CCOC(=O)/C=C/[C@H](CCC(N)=O)NC(=O)/C=C/c1cccc(Br)c1
7. CCOC(=O)/C=C/[C@H](C[C@@H]1CCNC1=O)NC(=O)C1=Cc2cc(Br)ccc2OC1
8. CCOC(=O)/C=C/[C@H](C[C@@H]1CCNC1=O)NC(=O)/C=C/c1ccc([N+](=O)[O-])cc1

1: 56.2 µM; 2: > 100 µM; 3: > 100 µM; 4: > 100 µM; 5: > 100 µM; 6: > 100 µM; 7: 65 µM; 8: > 10 µM
